# System: A498 renal
# Protocol Details: NCI tumour cell line growth inhibition, 48 h
Where a SMILES comes first, the peptide text is derived from it. [ ]: non-standard residue; d: D form. ξ: configuration not given here. ξLac(3-iPr) = CC(C)CC(O)C(=O)O; NMeV = CN[CH](C(=O)O)C(C)C; NMeA = CN[CH](C)C(=O)O; βAla = NCCC(=O)O
Test Readout: log10(TGI) (log10 of the value in µM)
Please keep in mind that the values are log10 of TGI expressed in µM.

O=C1c2c(ccc3c2CCC3)CC12Cc1ccccc1C2; 1.98
CCC(C)C1NC(=O)C2CCCN2C(=O)C(CC(C)C)OC(=O)CCNC(=O)C(C)N(C)C(=O)C(C(C)C)N(C)C1=O (stereo not drawn) (cyclo([ξLac(3-iPr)]PI[NMeV][NMeA][βAla]); configuration not given here); 1.91
CC(NC(=O)c1ccc(NP(=O)(OCc2ccc([N+](=O)[O-])o2)N(C)CCCCCl)cc1)c1ccc(OCC2CCCCC2)c(C(N)=O)c1 (stereo not drawn); 1.69

Each molecule below has a recorded value; state its log10(TGI).
1. CCN(CC)C(=S)SC(C(=O)Nc1nnc(-c2ccccc2)o1)c1ccccc1 (stereo not drawn)
2. Cc1cccc2c1CCC21OC(=O)c2c1ccc1ccccc21 (stereo not drawn)
3. Oc1c(Cl)cc(Cl)cc1C(c1cc(Cl)cc(Cl)c1O)C(Cl)(Cl)Cl

Result ::
1. 1.61
2. 1.73
3. 0.76

Each molecule below has a recorded value; state its log10(TGI).
1. C=C(CO)[C@@H]1CC[C@]2(COC3CCCCO3)CC[C@]3(C)[C@H](CC[C@@H]4[C@@]5(C)C=C(C=O)C(=O)C(C)(C)[C@@H]5CC[C@]43C)[C@@H]12 (stereo partly drawn)
2. OCCNc1nc(Nc2ccc(Cl)c(Cl)c2)nc2ccccc12

Result ::
1. -0.03
2. 1.14

Query :: Can you share its log10(TGI)? I mean this molecule: O=[N+]([O-])c1cc(C(F)(F)F)ccc1Sc1ccc(C(F)(F)F)cc1[N+](=O)[O-]
Result :: 1.49

* * *

# Test system: MDA-MB-231 breast
# Protocol Details: NCI tumour cell line growth inhibition, 48 h
Test Readout: TGI (µM)
Answers are plain numbers, in µM.

CCOC(=O)c1c(C)n(C)c2c1cc(O)c1[nH]c3c(c12)CCCC3; 43.9
COc1cc(-c2csc(NC(=O)Nc3ccc(C(F)(F)F)cc3)n2)cc(OC)c1OC; 3.69
N#C/C(=C\c1ccc(Br)cc1)n1nnc2cc(Cl)c(Cl)cc21; 8

Please examine the following record next.
Query :: Look up TGI with MDA-MB-231 breast for this molecule: COC(=O)c1cc2c3ccccc3[nH]c2c2sccc12
Result :: 61.3

* * *

# Tested on: UACC-62 melanoma
# Protocol Details: NCI tumour cell line growth inhibition, 48 h
Test Readout: TGI (µM)
Answers are plain numbers, in µM.

O=C(N/N=C/c1ccc(O)cc1O)c1cccc(Nc2ccnc(C(F)(F)F)c2)c1; 7.37
CC(=[N-])N1CCC[C@@H](Nc2c3ccccc3nc3ccccc23)C1.[Cl][Pt].[NH-]CCC[NH-]; 0.114
OCCNc1nc(Nc2ccc(Cl)c(Cl)c2)nc2ccccc12; 23.5

Query :: Can you share its TGI? I mean this compound: N#Cc1cc(S(=O)(=O)Nc2nnc(-c3ccccc3)c(-c3ccccc3)n2)c(SCc2ccccc2)cc1Cl
Result :: 48.7

* * *

# System: UACC-257 melanoma
# Protocol Details: NCI tumour cell line growth inhibition, 48 h
Test Readout: GI50

Use these answered entries as a reference point.
CC(=O)[CH-]C(=O)c1ccccc1.CC(=O)[CH-]C(=O)c1ccccc1.Cc1cc([O-])ccc1Cl.Cc1cc([O-])ccc1Cl.[Ti+4]; 27.1 µM
Fc1cccc(-n2ccc(-c3ccccc3)nc2=S)c1; 46.7 µM
CC(=O)O[C@H](C[C@H](C(C)C)N(C)C(=O)[C@@H](NC(=O)[C@H]1CCCN1C)C(C)C)c1nc(C(=O)N[C@@H](Cc2ccccc2)C[C@H](C)C(=O)O)c(C)s1; > 16.7 µM
CCOC(=O)C1=C(C)N(Cc2ccc(Cl)cc2Cl)C2(O)C=CC(=O)C3=C(O)c4ccccc4C(=O)C312 (centres undefined); 10.9 µM
O=C(N/N=C/c1ccc(O)cc1O)c1cccc(Nc2ccnc(C(F)(F)F)c2)c1; 3.06 µM

Each compound below has a recorded value; state its GI50.
1. C/C(O)=C(\C#N)C(=O)Nc1ccc(C(F)(F)F)cc1
2. CO/N=C(\COc1ccc2oc(-c3ccccc3)cc(=O)c2c1)c1ccc(OC)cc1
3. COC(=O)c1cc2c3ccccc3[nH]c2c2sccc12
4. CC(=[N-])N1CCC[C@@H](Nc2c3ccccc3nc3ccccc23)C1.[Cl][Pt].[NH-]CCC[NH-]
5. NS(=O)(=O)CC1CC[CH-]CC1.[Cl-].[Cl-].[Cl-].[Cl-].[Cl-].[Sb+5].c1ccncc1
6. CCn1c(-c2nonc2N)nc2c(C#CC(C)(C)O)ncc(OC[C@H]3CCCNC3)c21
7. O=C1/C(=C/c2ccc(Cl)cc2)CCC/C1=C\c1ccc(Cl)cc1
8. N#Cc1cc(S(=O)(=O)Nc2nnc(-c3ccccc3)c(-c3ccccc3)n2)c(SCc2ccccc2)cc1Cl

Result ::
> 100 µM
23.4 µM
89.6 µM
2.49 µM
> 100 µM
20.8 µM
4.17 µM
24.2 µM

Query :: Can you share its GI50? I mean this compound: CC(CN(C)C)Oc1ccccc1NC1=C(Cl)C(=O)C(Nc2ccccc2OC(C)CN(C)C)=C(Cl)C1=O (centres undefined)
Result :: 1.16 µM

* * *

Give measured TGI for each item. Keep answers brief.
# System: EKVX NSCLC
# Protocol Details: NCI tumour cell line growth inhibition, 48 h

C[N+](C)(C)CC(=O)N/N=C(\C(=O)NC1=C(Cl)C(=O)c2ccccc2C1=O)C(C#N)c1nc(-c2ccc([N+](=O)[O-])cc2)cs1 (stereo not given); 34.2 µM
CCCCCCCCCNC(=O)/C=C/c1ccc(O)c(O)c1; > 100 µM
COC1(OC)C=CC2C1C1C=CC2C1(OC)OC (stereo not given); > 100 µM
C=CCN1/C(=C2\SC(=S)N(c3ccc(C)cc3)C2=O)Sc2c1nc[nH]c2=O; > 100 µM

Each compound below has a recorded value; state its TGI.
1. CCOC(OCC)N1C(=O)C2(C(OCC)OCC)CC3C(OC(=O)N3N)c3cccc1c32 (stereo not given)
2. Clc1ccccc1CNc1c2ccccc2nc2ccccc12
3. C/C(=N\NC(=S)SCc1ccccc1)c1ccccn1
4. N#Cc1c(N)nc(N2CCOCC2)c(C#N)c1-c1ccccn1

Result ::
> 100 µM
9.85 µM
< 0.01 µM
> 100 µM

Each compound below has a recorded value; state its TGI.
1. COc1cc2c(cc1O)C1(Cc3ccc4c(c3C1=O)OCO4)N(C)CC2 (stereo not given)
2. CCCN(CCC)c1ccc(/C=N/NC(=O)c2cccnc2)c(OC)c1

Result ::
1: > 100 µM; 2: 59.2 µM

* * *

Give measured TGI for each item. Keep answers brief.
# System: HCC-2998 colon
# Protocol Details: NCI tumour cell line growth inhibition, 48 h

Use these answered entries as a reference point.
Cn1c(N)nc(=O)c2c1N(C1OC(CO)C(O)C1O)CN2Cc1ccccc1 (stereo unspecified); > 100 µM
Cc1ccc(NS(=O)(=O)c2cccc(C#N)c2)c2[nH]cc(C#N)c12; > 100 µM
N#Cc1c(N)nc(N2CCOCC2)c(C#N)c1-c1ccccn1; > 100 µM
CC1=C(/C=C/C(C)=C/C=C/C(C)=C/C(=O)O)C(C)(C)CCC1; 66.8 µM
O=C(NC(Cc1cnc[nH]1)C(=O)N1CCCC1)C1CCCC1 (stereo unspecified); > 100 µM
Cc1ccnc2[nH]c(-c3ccc(F)cc3)cc(=O)c12; > 100 µM
COc1ccc(C2=C(N)c3ncccc3C2=O)cc1; > 100 µM
COc1ccc2oc(C(=O)O)c3c2c1CCC3CCC(=O)O (stereo unspecified); > 100 µM

Each molecule below has a recorded value; state its TGI.
1. O=C(Nc1cccc(-c2ccc(Cl)c(C(F)(F)F)c2)c1)C1CCN(Cc2cccc3cccnc23)CC1
2. O=C(CCc1ccccc1)n1cccc1CO
3. COC(=O)C(Br)C1CCc2ccccc21 (stereo unspecified)
4. CCCCCCCCCC(=O)OCC1OC(n2cc(F)c(=O)[nH]c2=O)C(NC(=O)OCc2ccccc2)C(OC(=O)CCCCCCCCC)C1O (stereo unspecified)

Result ::
1. 2.85 µM
2. > 100 µM
3. > 100 µM
4. > 100 µM

Each molecule below has a recorded value; state its TGI.
1. O=C1c2ccccc2-c2c1c1c(O)cccc1n2Cc1ccccn1
2. CC(=O)O[C@@]12CO[C@@H]1C[C@@H](O)[C@@]1(C)C(=O)[C@H](O)C3=C(C)[C@@H](OC(=O)[C@H](O)[C@@H](NC(=O)c4ccccc4)c4ccccc4)C[C@@](O)([C@@H](OC(=O)c4ccccc4)C12)C3(C)C (stereo partly specified)
3. COC1(OC)C=CC2C1C1C=CC2C1(OC)OC (stereo unspecified)
4. CC(CN(C)C)Oc1ccccc1NC1=C(Cl)C(=O)C(Nc2ccccc2OC(C)CN(C)C)=C(Cl)C1=O (stereo unspecified)
5. CCOC(=O)C#Cc1c(C(=O)OCC)nnn1Cc1ccc([N+](=O)[O-])cc1
6. O=C(CCn1[nH]c(=O)c(Cl)c(Cl)c1=O)NNC(=O)C[n+]1ccccc1
7. NC(=O)SCCC(N)C(=O)O (stereo unspecified)

Result ::
1: > 100 µM; 2: 0.0705 µM; 3: > 100 µM; 4: 2.91 µM; 5: 32.2 µM; 6: > 100 µM; 7: > 100 µM

Each molecule below has a recorded value; state its TGI.
1. O=C(NNC(=S)NCc1ccccc1)c1csc(NC(=S)NC2CCCCC2)n1
2. CCCCCCCCCCCCCCCCCCNc1nc(=O)n(C2CC(O)C(COP(=O)(O)OCC3OC(n4ccc(N)nc4=O)C(O)C3O)O2)cc1F (stereo unspecified)
3. CCN(CC)C(=S)SCN1C(=O)c2ccccc2S1(=O)=O

Result ::
1: > 100 µM; 2: > 100 µM; 3: > 78 µM

Each molecule below has a recorded value; state its TGI.
1. CN(C)c1snc2c1c(=O)n(C)c(=O)n2C
2. O=c1[nH]c(=O)n(C2CC(O)C(CO)O2)c2nc3ccc4cc5ccccc5cc4c3nc12 (stereo unspecified)
3. [N-]=[N+]=NCCCn1c2c(c3ccc([N+](=O)[O-])cc3c1=O)C(=O)c1cc(F)ccc1-2
4. COC(=O)C(COC(=O)/C=C/c1ccc(OC(C)=O)c(OC(C)=O)c1)NC(=O)/C=C/c1ccc(OC(C)=O)c(OC(C)=O)c1 (stereo unspecified)

Result ::
1. > 100 µM
2. > 100 µM
3. > 100 µM
4. 47.3 µM
